# System: quinolone-resistant Haemophilus influenzae strains
# Protocol Notes: Microdilution MIC determination in HTM for quinolone-resistant Haemophilus influenzae strains
# Assay type: cell-based
# Settings: strain 1; mutations S133-A N138-S, None, S84-L
Recorded Metric: MIC (µg/mL)
Write the answer as a number in µg/mL, unit excluded.

# count of solved cases: 4
Molecule	MIC / µg/mL
C[C@@H]1CN(c2c(F)c(N)c3c(=O)c(C(=O)O)cn(C4CC4)c3c2F)C[C@H](C)N1 [Spar]	0.25
CO/N=C1\CN(c2nc3c(cc2F)c(=O)c(C(=O)O)cn3C2CC2)CC1CN (centres unmarked) [Gemi]	0.03
C[C@H]1COc2c(N3CCN(C)CC3)c(F)cc3c(=O)c(C(=O)O)cn1c23 [Levo]	0.5
Cc1c(F)c(N2CCNC(C)C2)cc2c1c(=O)c(C(=O)O)cn2C1CC1 (centres unmarked) [Grepa]	0.25

// below: MIC requested for another molecule
Would you kindly share the measured MIC for N[C@@H]1[C@H]2CN(c3nc4c(cc3F)c(=O)c(C(=O)O)cn4-c3ccc(F)cc3F)C[C@@H]12 [Trova] ?
1
